System: Escherichia coli TOP10;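 note: peptides expressed intracellularly from a pBAD plasmid library in pooled LB shake-flask culture, induced with 0.3% L-arabinose, DNA abundance read by NGS, three biological replicates, DESeq2 with apeglm shrinkage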
PROTOCOL DETAILS: shrunken log2 fold change of peptide-encoding DNA abundance (4.5 h post-induction vs induction); higher = less antimicrobial activity (less host growth inhibition)
CONDITION DESCRIPTION: time post-induction: 4.5 h; library: site-saturation at positions 5, 18, 19, 20
Response field class: enum, chosen by comparing shrunken log2 fold change against one (below -0.2), two (-0.2 to below 0.2), three (0.2 or more)

Field: example entries. Status: answers known.
CHAIN SEQUENCE	CLASS NAME
RRIRARPPRLPRPRPRPMACPRP	three
RRIRERPPRLPRPRPRPEQSPRP	two
RRIRWRPPRLPRPRPRPDLWPRP	three
RRIRLRPPRLPRPRPRPLVQPRP	two
RRIRSRPPRLPRPRPRPVMCPRP	two

Class? Entry: RRIRFRPPRLPRPRPRPYSIPRP
two

Would you mind sorting RRIRLRPPRLPRPRPRPPMKPRP into the appropriate category?
two

// bin(item) where item = RRIRQRPPRLPRPRPRPIVTPRP
one

Class label required: RRIRARPPRLPRPRPRPLMQPRP
three

Please let me know in which category the item RRIRTRPPRLPRPRPRPPVHPRP belongs.
two

Kindly state the category for this sequence: RRIRTRPPRLPRPRPRPGMSPRP
one

Determine which band this sequence sits in: RRIRERPPRLPRPRPRPTHMPRP
two

Kindly identify the class of RRIRRRPPRLPRPRPRPVNPPRP .
three

Category of RRIRGRPPRLPRPRPRPQLEPRP :
three

Field: class (shrunken log2 fold change) — entry: RRIRVRPPRLPRPRPRPSYKPRP
one
